Reference source: patent US4372877A

- experimental_protocol: Storage stability at 40 °C
- Type: physicochemical
- recorded_conditions: 59 days elapsed
List of % Purity values.
A number alone suffices; assume %.

molecule: CC(=O)OOC(=O)OCC1CCC(COC(=O)OOC(C)=O)CC1 (stereo not shown) [APCD]
% Purity [%]: 95.4
//
molecule: O=C(OCCOc1ccccc1)OOC(=O)OCCOc1ccccc1 [di(phenoxyethyl) peroxydicarbonate]
% Purity [%]: 84.7
//
molecule: CCCCCCCCCCCCCCCCCCOC(=O)OOC(C)=O [acetyl peroxystearyl carbonate]
% Purity [%]: 87.9

Would you kindly look at the next entry?
Data request: Item CC(C)(C)C1CCC(OC(=O)OOC(=O)OC2CCC(C(C)(C)C)CC2)CC1 (stereo not shown) has what recorded % Purity?
Data returned: 93.0

###

Entries and their % Purity
- experimental_protocol: Storage stability at 40 °C
- Format: physicochemical
- recorded_conditions: 0 days elapsed
Respond with the bare value in %.

Data request: Please give the measured % Purity for this compound: CC(=O)OOC(=O)OCC1CCC(COC(=O)OOC(C)=O)CC1 (stereo not shown)
Data returned: 99.6

Data request: Query (compound): O=C(OCCOc1ccccc1)OOC(=O)OCCOc1ccccc1 [di(phenoxyethyl) peroxydicarbonate] ; field requested: % Purity
Data returned: 97.4

Data request: % Purity for CCCCCCCCCCCCCCCCCCOC(=O)OOC(C)=O [acetyl peroxystearyl carbonate] ?
Data returned: 94.1

Data request: I am curious: what % Purity value has been reported for CC(C)(C)C1CCC(OC(=O)OOC(=O)OC2CCC(C(C)(C)C)CC2)CC1 (stereo not shown) ?
Data returned: 97.8

###

Each record here notes measured A.O..
- experimental_protocol: Storage stability at 40 °C
- Type: physicochemical
- Parameters: unit not given here
- recorded_conditions: 28 days elapsed
A bare number is all that is needed in reply.

molecule: CC(C)(C)C1CCC(OC(=O)OOC(=O)OC2CCC(C(C)(C)C)CC2)CC1 (stereo not shown)
A.O.: 3.82

molecule: CCCCCCCCCCCCCCCCCCOC(=O)OOC(C)=O [acetyl peroxystearyl carbonate]
A.O.: 3.92

molecule: O=C(OCCOc1ccccc1)OOC(=O)OCCOc1ccccc1 [di(phenoxyethyl) peroxydicarbonate]
A.O.: 4.03

Now take the following molecule into account.
Data request: Which A.O. reading was recorded for the molecule CC(=O)OOC(=O)OCC1CCC(COC(=O)OOC(C)=O)CC1 (stereo not shown) ?
Data returned: 8.98
